- System: XF 498 CNS
- PROTOCOL TEXT: NCI tumour cell line growth inhibition, 48 h
Listed here: items and their measured TGI.

Solved cases (8 shown):
INSERT INTO measurements (compound, assay_readout, measured_result) VALUES
  ('CC[CH2][Sn]([CH2]CC)([O]C(=O)Cc1ccc(F)cc1)[O][Sn]([CH2]CC)([CH2]CC)[O]C(=O)Cc1ccc(F)cc1', 'TGI', '0.302 µM'),
  ('CCCN1C(=O)CNC(=O)c2[nH]cnc21', 'TGI', '> 100 µM'),
  ('COc1cc(Nc2nc3cc(C(F)(F)F)ccc3nc2C)cc(OC)c1OC', 'TGI', '8.77 µM'),
  ('COC1CC(OC)C(O)C(CO)O1 (stereo unspecified)', 'TGI', '> 100 µM'),
  ('Cc1ccc(SSCCCCCS(=O)O)cc1', 'TGI', '49.6 µM'),
  ('CCN(CC)CCCNc1ncc(C)c2c1c1ccc3c(O)cccc3c1n2C', 'TGI', '29.5 µM'),
  ('O=S(O)c1cc(Cl)cc(Cl)c1OCc1ccccc1', 'TGI', '> 100 µM'),
  ('O=C(O)[C@@H](NS(=O)(=O)c1ccc([N+](=O)[O-])cc1)c1ccccc1', 'TGI', '> 100 µM');

Form field TGI, entry CCOC(=O)NC1CC2CCC1(OC)C=C2C (stereo unspecified) : > 100 µM

Summary for this compound, CC/C(SC)=[N+](\C)[O-] : TGI is > 100 µM

According to the records, this compound COc1ccccc1NC(=O)C(CC(C(=O)Nc1ccccc1OC)/C(C)=N/NC(=O)c1ccccc1O)/C(C)=N/NC(=O)c1ccccc1O (stereo unspecified) displays TGI of > 100 µM

----------
Here the recorded TGI is given for each entry.
- System: SK-MEL-2 melanoma
- PROTOCOL TEXT: NCI tumour cell line growth inhibition, 48 h

For orientation, consider the following solved cases.
INSERT INTO results (compound, study_system, measured_result) VALUES
  ('Cc1ccc(NC(=O)c2cc3ccccc3cc2O)c(C)c1.Cc1ccc(NC(=O)c2cc3ccccc3cc2[O-])c(C)c1.[Ni+2]', 'SK-MEL-2 melanoma', '3.62 µM'),
  ('FC(F)(F)c1cccc(C2SCc3nc4ccccc4n32)c1 (stereo not given)', 'SK-MEL-2 melanoma', '> 100 µM');

TGI reported for this compound N#CC1(C#N)C(c2ccccc2)C=CC(c2ccc([N+](=O)[O-])cc2)C1(C#N)C#N (stereo not given) : 31.6 µM

// TGI value for O=C(Cc1ccccc1)NS(=O)(=O)c1ccccc1 : > 100 µM

The reported value for Cc1ccc(C2=NN(c3ccc(S(N)(=O)=O)cc3)C(c3cn(-c4ccccc4)nc3-c3ccccc3)C2)cc1 (stereo not given) in terms of TGI is > 100 µM

Measured TGI, Cn1nc2ccccc2cc1=O : > 100 µM

Recorded TGI (compound COC(=O)[C@@H]1OC(C)(c2ccccc2)O[C@H]1C(=O)OC ): > 100 µM

Entry COc1ccc(C2CC(=O)c3c(O)c(OC)c(OC)c(OC)c3O2)cc1O (stereo not given) — recorded TGI = > 100 µM

Lab note: measured TGI of O=C(c1ccccc1)C1C[C@H]2CO[C@H](c3ccccc3)N2C1=O (stereo not given in full) was > 100 µM

Record COc1cc2c(cc1OC)C(=O)/C(=C/c1ccc([N+](=O)[O-])cc1)CC2 . Reported TGI: > 10 µM

----------
- System: MDA-MB-435
- PROTOCOL TEXT: NCI tumour cell line growth inhibition, 48 h
ASSAY READOUT: TGI

Field: example entries. Status: answers known.
INSERT INTO assay_data (compound, study_system, measured_result) VALUES
  ('CCOC(=O)c1ccc(Nc2nc3cc(C(F)(F)F)ccc3nc2C(=O)OCC)cc1', 'MDA-MB-435', '> 100 µM'),
  ('C[N+](C)(CCO)CCN1c2ccccc2Sc2ccccc21', 'MDA-MB-435', '> 10 µM'),
  ('CCOCCOC[C@H]1CCCN(c2ccnc3sc(C(N)=O)c(N)c23)C1', 'MDA-MB-435', '> 100 µM');

Please fill in: TGI reported for CCOC(=O)c1c(CN2CCCC2)n(-c2ccccc2)c2cc(Br)c(OC)cc12 = > 100 µM

Reported TGI for CC(=O)CCC[C@H](C)[C@@H](O)[C@@H]1O[C@H]([C@@]2(C)CCC(=O)O2)C[C@H]1C(=O)O was > 100 µM

Just so you know, measured TGI for C=CCC1C(=O)Nc2cccc3ncn(c23)C1=O (stereo not given) came out at > 100 µM

Value of measured TGI for the entry CCOC(=O)c1ccc(N=c2oc3ccc(OC)cc3cc2-c2nc3ccccc3[nH]2)cc1 : > 100 µM

TGI recorded for this compound, CCOC(=O)c1cc(C#N)[nH]c1-c1ccsc1 , is 51.9 µM

For reference, reported TGI for Cc1cc(N(CCOS(C)(=O)=O)CCOS(C)(=O)=O)ccc1C=Nc1ccc(-c2csc(-c3ccc(Br)cc3)n2)cc1 stands at 58.8 µM

Record O=c1/c(=C/c2ccc([N+](=O)[O-])o2)sc2n1[C@@H](c1ccc3c(c1)OCO3)C=C(c1cc(F)c(Cl)cc1Cl)N=2 , field TGI: 35.3 µM

----------
- Tested on: HOP-92 NSCLC
- PROTOCOL TEXT: NCI tumour cell line growth inhibition, 48 h
Label scheme for TGI: lower than 40 µM is Not fulfilled, 40 µM and above is Fulfilled.

These solved cases illustrate the format of a correct answer.
INSERT INTO assay_data (compound, class_assignment) VALUES
  ('COc1ccc(C(c2cc3c(cc2O)OCO3)N2CCOCC2)cc1OC (stereo not given)', 'Not fulfilled'),
  ('CC1(O)Oc2ccc3ccccc3c2C=C1C(N)=O (stereo not given)', 'Fulfilled');

Exercise: // inclusive: TGI at least 40 µM? input: c1cc(C[S+]2CCCC2)sc1C[S+]1CCCC1
Solution: Fulfilled

Exercise: // inclusive: TGI at least 40 µM? input: O=C(c1ccccc1)C1C[C@H]2CO[C@H](c3ccccc3)N2C1=O (stereo not given in full)
Solution: Fulfilled

Exercise: Assess whether reported TGI for Fc1ccc2c3c([nH]c2c1)CCNC3 sits at 40 µM or higher.
Solution: Fulfilled

----------
- Tested on: ACHN renal
- PROTOCOL TEXT: NCI tumour cell line growth inhibition, 48 h
GI50: recorded values

Value of measured GI50 for the entry CC(C)(C)c1cc(-c2nc3c(F)c(F)c(F)c(F)c3[nH]2)cc(C(C)(C)C)c1O : > 100 µM

Lab book: GI50 of C[C@@H]1OCC2(CCN(c3cnc(Sc4ccnc(N)c4Cl)c(N)n3)CC2)[C@@H]1N noted as 4.71 µM

The reported GI50 of the compound CCN(CC)CC[n+]1cc2cc(OC)c(OC)cc2c2ccc3cc4c(cc3c21)OCO4 was 1.25 µM

The compound CC(=O)[O][Bi]([c]1ccccc1)[c]1ccccc1 showed GI50 equal to 11.8 µM

GI50 measured on c1ccc2c3c(ccc2c1)-c1c(ccc2c(NCCCCN4CCCCC4)cccc12)C3 = 1.61 µM

----------
- System: A549 NSCLC
- PROTOCOL TEXT: NCI tumour cell line growth inhibition, 48 h; in the data active = GI50 below about 0.43 µM; inactive = the rest
Outcome field: choose from active, inactive

Field: example entries. Status: answers known.
INSERT INTO results (compound, class_assignment) VALUES
  ('Cc1ccc(NC(=O)c2cc3ccccc3cc2O)c(C)c1.Cc1ccc(NC(=O)c2cc3ccccc3cc2[O-])c(C)c1.[Ni+2]', 'inactive'),
  ('N#Cc1nn(-c2cc(=O)[nH]c3ccc(Br)cc23)c(N)c1C#N', 'inactive'),
  ('O=S(=O)(Nc1ccccn1)c1ccc(N=Nc2ccc(O)c3ncccc23)cc1', 'inactive');

Next compound, please.
Exercise: Each compound tested received a call. Report the one for Cc1nn(C)c2cc(N(C)c3ccnc(Nc4cccc(S(N)(=O)=O)c4)n3)ccc12 .
Solution: inactive

----------
- Test system: SNB-19 CNS
- PROTOCOL TEXT: NCI tumour cell line growth inhibition, 48 h; in the data active means GI50 below about 0.43 µM; inactive means the rest
Parameter call: string, one of Yes for active, No for inactive

Before answering, review these 5 worked examples.
INSERT INTO measurements (compound, class_assignment) VALUES
  ('C=C1C(=O)O[C@H]2[C@H]1CC/C(COC(=O)NCc1cc(OC)cc(OC)c1)=C\CC[C@@]1(C)O[C@@H]21', 'No'),
  ('COc1cnc2c(c1)C(=O)c1c-2n(CCCNC(C)C)c(=O)c2cc([N+](=O)[O-])ccc12', 'Yes'),
  ('COc1ccc(C2CC(=O)c3c(O)c(OC)c(OC)c(OC)c3O2)cc1O (centres undefined)', 'Yes'),
  ('c1ccc2c3c(ccc2c1)-c1c(ccc2c(NCCCCN4CCCCC4)cccc12)C3', 'No'),
  ('COC1=C(OC)[C@]2(OC)c3c(O)c(OC)c4c(c3O[C@@]23O[C@@H](c2ccccc2)CC=C3C1=O)[C@@H](O)C[C@H](c1ccccc1)O4', 'No');

Exercise: Identify the outcome logged in this assay for the compound shown: CCOCCOC[C@H]1CCCN(c2ccnc3sc(C(N)=O)c(N)c23)C1
Solution: No

Exercise: How did this test come out for COc1ccc2nc3ccccc3c(NCc3ccc(C)cc3)c2c1 ?
Solution: No

Exercise: Identify the outcome logged in this assay for the compound shown: C=CCSSc1ncnc2c1ncn2C1OC(CO)C(O)C1O (centres undefined)
Solution: No

Exercise: Returns: the outcome recorded for COc1cc(C)c(NC(=O)CN(C)C)cc1Nc1nc(Nc2cccc(F)c2C(N)=O)c2cc[nH]c2n1 in this assay.
Solution: No
